- Protocol Description: JACKPOT2 single-ascending-dose plasma PK, healthy participants in USA
- Format: in vivo, human
- Measurement Parameters: human, plasma, oral; single dose 5 mg; geometric mean (CV%)
Reported Endpoint: Cmax (ng/mL)

| Smiles Data | Reported Endpoint | Observed Result |
| --- | --- | --- |
| COc1nn(C)cc1Nc1nccc(-c2c[nH]c3c(NC(=O)[C@@H](C)N4CCN(C)CC4)cccc23)n1 | Cmax | 5.14 |

---

- Protocol Description: JACKPOT3 single-ascending-dose plasma PK, healthy Chinese participants
- Assay type: in vivo, human
- Measurement Parameters: human, plasma, oral; single dose 100 mg; geometric mean (CV%)

| Smiles Data | AUC(0-inf) |
| --- | --- |
| COc1nn(C)cc1Nc1nccc(-c2c[nH]c3c(NC(=O)[C@@H](C)N4CCN(C)CC4)cccc23)n1 | 4740 ng·h/mL |

Each recorded value in this set is attributed to paper PMC10108266.
